Overview of recorded kon for various binders
target-or-system: T1, Human Cdc42 GTPase, wild type, residues 1-179 (human, UniProt P60953 1-179)
T1 construct: four extra residues (Gly-Ser-Phe-Thr) from the expression vector left at the N-terminus of Cdc42; human Cdc42, residues 1-179; also called Cdc42WT; wild-type Cdc42; source: E. coli Rosetta, purified (HisTrap, TEV cleavage, second HisTrap, Superdex 75); not shown: His6, N-terminal, cleaved
T1 sequence (P60953 other isoform, or with tags, fused parts or gaps): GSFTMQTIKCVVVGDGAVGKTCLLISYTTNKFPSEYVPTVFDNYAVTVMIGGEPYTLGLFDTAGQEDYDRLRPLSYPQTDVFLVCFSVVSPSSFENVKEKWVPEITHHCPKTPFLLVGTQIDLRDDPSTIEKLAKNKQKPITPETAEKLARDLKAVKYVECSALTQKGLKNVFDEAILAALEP
method-summary: stopped-flow fluorescence; ka from kobs against [GBD]; 0.1 μM mantGppNHp·Cdc42 in one syringe, GBD in excess in the second; 50 mM sodium phosphate pH 7.0, 5 mM MgCl2, 1 mM TECP, 25 °C
measurement-context: both partners purified
Answer with a number only, understood to be in M⁻¹ s⁻¹.

1) WASP GBD (residues 228-298) with Lys230Lys231Lys232 changed to Glu (domain or fragment, human, two extra residues (Gly-Ser) from the thrombin recognition site left at the N-terminus of GBD; also called GBD3E; source: E. coli Rosetta, purified (GSTrap, thrombin, 70 °C heat step, Superdex 75); not shown: GST, N-terminal, cleaved) GSSGEEEISKADIGAPSGFKHVSHVGWDPQNGFDVNNLDPDLRSLFSRAGISEAQLTDAETSKLIYDFIEDQG :: 97000
2) GTPase-binding domain (GBD) of the Wiskott-Aldrich Syndrome protein (WASP), wild type, residues 228-298 (domain or fragment, human, two extra residues (Gly-Ser) from the thrombin recognition site left at the N-terminus of GBD; 15N labelled for the NMR experiment; also called GBDWT; wild-type GBD; source: E. coli Rosetta, purified (GSTrap, thrombin, 70 °C heat step, Superdex 75); not shown: GST, N-terminal, cleaved) GSSGKKKISKADIGAPSGFKHVSHVGWDPQNGFDVNNLDPDLRSLFSRAGISEAQLTDAETSKLIYDFIEDQG :: 5.53e+06
3) WASP GBD (residues 228-298) with Lys230Lys231Lys232 substituted by Ala (domain or fragment, human, two extra residues (Gly-Ser) from the thrombin recognition site left at the N-terminus of GBD; 15N labelled for the NMR experiment; also called GBD3A; source: E. coli Rosetta, purified (GSTrap, thrombin, 70 °C heat step, Superdex 75); not shown: GST, N-terminal, cleaved) GSSGAAAISKADIGAPSGFKHVSHVGWDPQNGFDVNNLDPDLRSLFSRAGISEAQLTDAETSKLIYDFIEDQG :: 920000

Now look at this entry.
*Q* Name the recorded kon for Truncated WASP GBD (residues 238-298) with the BR segment deleted (domain or fragment, human, two extra residues (Gly-Ser) from the thrombin recognition site left at the N-terminus of GBD; also called GBDΔBR; source: E. coli Rosetta, purified (GSTrap, thrombin, 70 °C heat step, Superdex 75); not shown: GST, N-terminal, cleaved) GSIGAPSGFKHVSHVGWDPQNGFDVNNLDPDLRSLFSRAGISEAQLTDAETSKLIYDFIEDQG .
*A* 40000
